conditions: Ebola virus entry assay, green channel fluorescence
Entries with a potency or affinity are not part of this list. Activity calls are given as the source filed them. How the calls were made is not given here.
Measured endpoint: outcome

QUERY: Looking for the measured outcome of `O=c1c(-c2ccc(O)cc2)coc2cc(O)cc(O)c12` , can you help?
RESULT: inactive

QUERY: Would you kindly share the measured outcome for `O=C(O)c1cc(=O)c2ccccc2o1` ?
RESULT: inactive

QUERY: Given the molecule `O=C(/C=C/c1ccccc1)OCc1ccccc1` , what is its reported outcome?
RESULT: inactive

QUERY: Looking for the measured outcome of `O=C(O)CCCC[C@@H]1SC[C@@H]2NC(=O)N[C@@H]21` , can you help?
RESULT: inactive

QUERY: May I ask what outcome has been recorded for `CC(C)Cn1cnc2c(N)nc3ccccc3c21` ?
RESULT: inactive

QUERY: // returns reported outcome for input `COc1ccc2cc([C@H](C)C(=O)O)ccc2c1`
RESULT: inactive

QUERY: Name the reported outcome value associated with the molecule `Cc1[nH]cnc1-c1ccc(Cl)cc1`
RESULT: inactive

QUERY: Please report the recorded outcome for `CN1CCN(CC(=O)N2c3ccccc3C(=O)Nc3cccnc32)CC1` .
RESULT: inactive

QUERY: So what's the measured outcome for this one? CCC1(C)CC(=O)NC1=O (stereo not drawn)
RESULT: inactive

QUERY: Fill in the blank: the reported outcome of CC(C(=O)O)c1cccc(Oc2ccccc2)c1 (stereo not drawn) is ____.
RESULT: inactive

Next:
QUERY: # lookup: outcome of `CC[C@H](C)[C@H](N)C(=O)O`
RESULT: inactive

QUERY: What value of measured outcome is listed for `O=S(=O)(O)c1ccc(O)cc1` ?
RESULT: inactive

QUERY: Given the entry `CCCCC(=O)OCC(=O)[C@H]1[C@H](C)C[C@H]2[C@@H]3C[C@H](F)C4=CC(=O)C=C[C@]4(C)[C@@]3(F)[C@@H](O)C[C@@]21C` , report its measured outcome.
RESULT: inactive

QUERY: Return reported outcome; argument: `CCCCCCCCCCCCCCCCOP(=O)([O-])OCC[N+](C)(C)C`
RESULT: inactive

QUERY: Any idea what outcome was measured for `O=C(CO)[C@@H](O)[C@H](O)[C@@H](O)CO` ?
RESULT: inactive

---

assay: qHTS for Inhibitors of the Functional Ribonucleoprotein Complex (vRNP) of Lassa (LASV) Arenavirus: Viability assay - alamar blue signal for LASV Primary Screen (AID 1347083); conditions: cell viability, alamar blue fluorescence (LASV minigenome counter-screen); series mostly up to 57.5 µM; further: potency means the concentration at half of the fitted maximal effect; nearly all actives have a fitted effect of over 80% in size
Inconclusive results are not listed. Calls of active or inactive are those of the source. The call rests on the fitted dose curve; tested in HEK293 reporter line.
Measured endpoint: Potency

// known answers, use as guide
QUERY: Can you look up the measured Potency of `COc1cccc2c1C(=O)c1c(O)c3c(c(O)c1C2=O)C[C@@](O)(C(=O)CO)C[C@@H]3O[C@H]1C[C@H](N)[C@@H](O)[C@H](C)O1` for me?
RESULT: 1090 nM (active)

QUERY: Reported Potency for `O=C(Nc1cccc2c(=O)cc(-c3nn[nH]n3)oc12)c1ccc(OCCCCc2ccccc2)cc1` : what is it?
RESULT: 30600 nM (active)

QUERY: Looking for the measured Potency of C[C@@H]1O[C@@H](O[C@H]2CC[C@@]3(C)[C@H](CC[C@@H]4[C@H]3C[C@@H](O)[C@]3(C)[C@@H](C5=CC(=O)OC5)CC[C@]43O)C2)C[C@H](O)[C@@H]1O[C@H]1C[C@H](O)[C@H](O[C@H]2C[C@H](O)[C@@H](O)[C@@H](C)O2)[C@H](C)O1 (stereo in doubt) , can you help?
RESULT: 352 nM (active)

QUERY: // returns reported Potency for input `S=c1nc[nH]c2nc[nH]c12`
RESULT: 6110 nM (active)

QUERY: Consider the compound `COc1cccc2c1C(=O)c1c(O)c3c(c(O)c1C2=O)C[C@@](O)(C(C)=O)C[C@H]3O[C@H]1C[C@H](N)[C@H](O)[C@H](C)O1` and give its measured Potency.
RESULT: 153 nM (active)

QUERY: Name the reported Potency value associated with the compound `COc1cc(NS(C)(=O)=O)ccc1Nc1c2ccccc2nc2ccccc12`
RESULT: 2510 nM (active)

Others:
QUERY: Recorded Potency of `CCCCCCNC(=O)n1cc(F)c(=O)[nH]c1=O` , please.
RESULT: 43200 nM (active)
